test system: Mycolicibacterium smegmatis; test: Antimycobacterial activity against Mycobacterium smegmatis MC2 155 ATCC 14468 after 32 hrs by turbidimetry; assay type: functional; details: MC2 155 ATCC 14468, 32 h
readout_kind: MIC50 (µg/mL)
Lab book: enter the figure in µg/mL, no units written.

### Prompt Returns the measured MIC50 for the input molecule. Input: NNC(=O)c1ccncc1
### Response 12.1

* * *

tested on: Mycolicibacterium smegmatis; test: Antimycobacterial activity against Mycobacterium smegmatis MC2 155 ATCC 14468 after 32 hrs by turbidimetry; assay type: functional; conditions: MC2 155 ATCC 14468, 32 h
MIC50 reference

Cc1nc2ccccc2cc1-c1cn2ccccc2n1 : > 50 µg/mL
Cc1nc2ccccc2cc1-c1nnc(CCc2ccccc2)o1 : 35 µg/mL
Cc1nc2ccccc2cc1-c1cc[nH]n1 : 14.7 µg/mL
COc1cc(OC)c(C2CC(c3cc4ccccc4nc3C)=NN2C(C)=O)c(OC)c1 (stereo not drawn) : 57.9 µg/mL
Cc1nc2ccccc2cc1C(=O)NN : > 50 µg/mL
CO[C@H]1/C=C/O[C@@]2(C)Oc3c(C)c(O)c4c(O)c(c(/C=N/N5CCN(C)CC5)c(O)c4c3C2=O)NC(=O)/C(C)=C\C=C\[C@H](C)[C@H](O)[C@@H](C)[C@@H](O)[C@@H](C)[C@H](OC(C)=O)[C@@H]1C : 2.08 µg/mL

### Prompt Dear colleague, I am looking for the recorded MIC50 of the following compound: Cc1nc2ccccc2cc1-c1csc(N)n1
### Response > 50 µg/mL

### Prompt // MIC50 lookup, key: Cc1nc2ccccc2cc1-c1ccnc(N)n1
### Response > 50 µg/mL
